# tgt: metabotropic glutamate receptors mG1uR2 (Rattus norvegicus, UniProt P31421)
# Construct: expressed in transfected cells
# Sequence (P31421 19-872): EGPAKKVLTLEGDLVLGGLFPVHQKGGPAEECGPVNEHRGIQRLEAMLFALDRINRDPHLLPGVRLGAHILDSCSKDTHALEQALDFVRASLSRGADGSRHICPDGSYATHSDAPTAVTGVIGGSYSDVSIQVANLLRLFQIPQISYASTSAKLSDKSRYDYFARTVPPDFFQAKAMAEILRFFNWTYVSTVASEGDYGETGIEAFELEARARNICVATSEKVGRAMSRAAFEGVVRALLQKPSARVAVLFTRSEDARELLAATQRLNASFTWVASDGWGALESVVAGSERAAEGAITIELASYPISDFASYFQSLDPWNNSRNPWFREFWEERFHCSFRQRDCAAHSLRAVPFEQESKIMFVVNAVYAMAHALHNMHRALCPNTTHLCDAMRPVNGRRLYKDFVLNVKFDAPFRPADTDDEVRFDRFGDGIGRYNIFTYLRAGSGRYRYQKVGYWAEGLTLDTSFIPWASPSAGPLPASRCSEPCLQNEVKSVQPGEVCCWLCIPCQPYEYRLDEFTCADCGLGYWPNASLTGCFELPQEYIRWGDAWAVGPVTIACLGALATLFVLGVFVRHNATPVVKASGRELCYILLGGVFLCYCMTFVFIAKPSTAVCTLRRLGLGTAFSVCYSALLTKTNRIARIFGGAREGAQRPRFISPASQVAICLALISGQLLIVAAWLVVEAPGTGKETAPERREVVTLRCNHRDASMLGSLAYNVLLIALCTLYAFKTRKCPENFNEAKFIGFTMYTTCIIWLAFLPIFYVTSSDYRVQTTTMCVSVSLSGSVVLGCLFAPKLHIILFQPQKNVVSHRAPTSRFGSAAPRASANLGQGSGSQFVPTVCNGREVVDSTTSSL
# assay: Effect of Test Compounds on cAMP Accumulation (inhibition of Forskolin-stimulated cAMP accumulation in CHO cells stably expressing mGluR2)
# Type: cell-based
measured quantity: IC50
State the result as a value with its unit after it.

Ask: // returns reported IC50 for input N[C@@]1(C(=O)O)CC[C@@H](C(=O)O)C1 [(1s,3R)-ACPD, reference compound]
Reply: 1500 nM
